System: tibial dyschondroplasia;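 further: score 3 means a large cartilage mass in the proximal tibia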
Assay type: in vivo, chicken (Peterson X Arbor Acre cockerels)
Settings: Study 4; D3 […], derivatives 10 μg/kg feed
Procedure: Deep irregularities are apparent. The basal diet used is described above in Table 2. Disulfiram was added to the basal diet of some chickens as indicated in Table 10 at a level of 30 mg/kg of feed. After the tibia was scored for incidence and severity of tibial dyschondroplasia, the left tibia was removed for a bone ash determination on the fat-free dried bone.
Outcome: class 1 for % #3 of at least 20%; class 0 for anything lower.

{"MOLECULE": "C=C1/C(=C\\C=C2/CCC[C@]3(C)[C@@H]([C@H](C)CCC(O)C(C)(C)O)CC[C@@H]23)C[C@@H](O)C[C@@H]1O (stereo partly shown) [1,24,25-(OH)2 D3, 1,24,25-trihydroxycholecalciferol]", "ASSAY_SYSTEM": "tibial dyschondroplasia", "CLASSIFICATION": "class 0"}
{"MOLECULE": "[2H]C([2H])([2H])C(O)(CCC[C@@H](C)[C@H]1CC[C@H]2/C(=C/C=C3/C[C@@H](O)C[C@H](O)C3=C)CCC[C@]12C)C([2H])([2H])[2H] [1,25-(OH)2-26,27[^1 H]6 D3]", "ASSAY_SYSTEM": "tibial dyschondroplasia", "CLASSIFICATION": "class 0"}
{"MOLECULE": "C=C1CC[C@H](O)C/C1=C/C=C1\\CCC[C@]2(C)[C@@H]([C@H](C)CCC(O)C(C)(C)O)CC[C@@H]12 (stereo partly shown) [24,25-(OH)2 D3, 24,25-dihydroxycholecalciferol, reference compound]", "ASSAY_SYSTEM": "tibial dyschondroplasia", "CLASSIFICATION": "class 1"}
{"MOLECULE": "C=C1CC[C@H](O)C/C1=C/C=C1\\CCC[C@]2(C)[C@@H]([C@H](C)CCCC(C)C)CC[C@@H]12 [D3, cholecalciferol, reference compound]", "ASSAY_SYSTEM": "tibial dyschondroplasia", "CLASSIFICATION": "class 1"}
{"MOLECULE": "C=C1/C(=C\\C=C2/CCC[C@]3(C)[C@@H]([C@H](C)CC[C@@H](F)C(C)(C)O)CC[C@@H]23)C[C@@H](O)C[C@@H]1O [1,25-(OH)2-24R-FD3, 1,25-dihydroxy-24-fluorocholecalciferol]", "ASSAY_SYSTEM": "tibial dyschondroplasia", "CLASSIFICATION": "class 0"}
{"MOLECULE": "C=C1/C(=C\\C=C2/CCC[C@]3(C)[C@@H]([C@H](C)CCCC(C)C)CC[C@@H]23)C[C@@H](O)C[C@@H]1O [1-OHD3, 1-hydroxycholecalciferol]", "ASSAY_SYSTEM": "tibial dyschondroplasia", "CLASSIFICATION": "class 0"}
{"MOLECULE": "C=C1/C(=C\\C=C2/CCC[C@]3(C)[C@@H]([C@H](C)CCCC(C)(C)O)CC[C@@H]23)C[C@@H](O)C[C@@H]1O [1,25-(OH)2 D3, 1,25-dihydroxycholecalciferol]", "ASSAY_SYSTEM": "tibial dyschondroplasia", "CLASSIFICATION": "class 0"}
